biological target: BTK (Homo sapiens, UniProt Q06187); assay: Degradation of BTK protein in Namalwa cells (Western blot; DC50, Dmax); details: read-out: Dmax (BTK degradation)
Sequence (Q06187 whole entry): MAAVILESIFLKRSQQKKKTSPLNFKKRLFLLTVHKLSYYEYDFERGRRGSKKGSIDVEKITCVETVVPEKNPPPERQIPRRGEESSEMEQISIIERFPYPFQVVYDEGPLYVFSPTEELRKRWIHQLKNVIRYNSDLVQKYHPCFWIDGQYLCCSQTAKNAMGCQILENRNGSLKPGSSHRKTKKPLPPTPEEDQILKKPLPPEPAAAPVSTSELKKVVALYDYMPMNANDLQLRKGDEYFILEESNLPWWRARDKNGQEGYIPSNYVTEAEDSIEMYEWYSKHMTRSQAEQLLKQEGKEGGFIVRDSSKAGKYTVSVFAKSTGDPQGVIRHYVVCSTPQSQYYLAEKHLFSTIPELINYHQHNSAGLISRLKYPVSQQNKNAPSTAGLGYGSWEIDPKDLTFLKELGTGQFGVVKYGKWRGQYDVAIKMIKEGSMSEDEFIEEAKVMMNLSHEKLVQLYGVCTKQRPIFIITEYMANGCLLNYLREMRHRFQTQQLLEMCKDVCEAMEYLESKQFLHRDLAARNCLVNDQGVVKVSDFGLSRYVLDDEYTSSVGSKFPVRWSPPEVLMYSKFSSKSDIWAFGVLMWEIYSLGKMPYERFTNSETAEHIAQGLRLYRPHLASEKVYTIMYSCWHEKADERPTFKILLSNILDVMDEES
EXPERIMENTAL ENDPOINT: Dmax

Below, each entry is followed by its recorded Dmax result.
>  <COMPOUND>
Nc1ncnc2c1c(-c1ccc(Oc3ccccc3)cc1)nn2C1CCN(C2CCN(CCCN3CCC(c4ccc(N5CCC(=O)NC5=O)cc4)CC3)C2)CC1 (stereo not drawn) [Compound 576]

>  <Dmax>
> 90%

$$$$
>  <COMPOUND>
Nc1ncnc2c1c(-c1ccc(Oc3ccccc3)cc1)nn2C1CCN(CCN2CCC(CN3CCN(c4ccc(NC5CCC(=O)NC5=O)cc4)CC3)C2)CC1 (stereo not drawn) [Compound 563]

>  <Dmax>
> 90%

$$$$
>  <COMPOUND>
Nc1ncnc2c1c(-c1ccc(Oc3ccccc3)cc1)nn2C1CCN(CCCN2CCC(CN3CCN(c4ccc(NC5CCC(=O)NC5=O)cc4)CC3)CC2)CC1 (stereo not drawn) [Compound 560]

>  <Dmax>
> 90%

$$$$
>  <COMPOUND>
Nc1ncnc2c1c(-c1ccc(Oc3ccccc3)cc1)nn2[C@@H]1CCCN(C2CN(C(=O)N3CC(N4CCN(c5ccc6c(c5)CN(C5CCC(=O)NC5=O)C6=O)CC4)C3)C2)C1 (stereo partly drawn) [Compound 480]

>  <Dmax>
> 90%

$$$$

Hi team, please reply with Dmax for each item in this list.
1. Nc1ncnc2c1c(-c1ccc(Oc3ccccc3)cc1)nn2C1CCC(C(=O)N2CC(N3CCN(c4ccc5c(c4)CN(C4CCC(=O)NC4=O)C5=O)CC3)C2)CC1 (stereo not drawn) [Compound 512]
2. Nc1ncnc2c1c(-c1ccc(Oc3ccccc3)cc1)nn2C1CCN(C2CCN(CC3CN(CC4CN(c5ccc6c(c5)C(=O)N(C5CCC(=O)NC5=O)C6=O)C4)C3)CC2)CC1 (stereo not drawn) [Compound 437]
3. Nc1ncnc2c1c(-c1ccc(Oc3ccccc3)cc1)nn2C1CCN(C2CCN(CC3CCN(c4ccc(N5CCC(=O)NC5=O)cc4)CC3)CC2)CC1 [Compound 568]
4. Nc1ncnc2c1c(-c1ccc(Oc3ccccc3)cc1)nn2C1CCN(C2CCN(CCCN3CCN(c4ccc(N5CCC(=O)NC5=O)cc4)CC3)CC2)CC1 [Compound 572]
5. Nc1ncnc2c1c(-c1ccc(Oc3ccccc3)cc1)nn2C1CCN(C2CCN(CC3CCN(c4ccc(N5CCC(=O)NC5=O)cc4)CC3)C2)CC1 (stereo not drawn) [Compound 573]

Result:
1: > 90%; 2: > 90%; 3: > 75%; 4: > 90%; 5: > 75%

Hi team, please reply with Dmax for each item in this list.
1. Nc1ncnc2c1c(-c1ccc(Oc3ccccc3)cc1)nn2C1CCN(CC2CCN(CC3CCN(CC4CN(c5ccc6c(c5)CN(C5CCC(=O)NC5=O)C6=O)C4)CC3)CC2)CC1 (stereo not drawn) [Compound 432]
2. Nc1ncnc2c1c(-c1ccc(Oc3ccccc3)cc1)nn2C1CCN(CCCN2CCC(CN3CCC(c4ccc(N5CCC(=O)NC5=O)cc4)CC3)CC2)CC1 [Compound 555]
3. Nc1ncnc2c1c(-c1ccc(Oc3ccccc3)cc1)nn2C1CCN(CCN2CC(N3CCN(c4ccc5c(c4)C(=O)N(C4CCC(=O)NC4=O)C5=O)CC3)C2)CC1 (stereo not drawn) [Compound 463]

Result:
["> 90%", "> 90%", "> 90%"]
